The measured values listed here are drawn from paper PMC9482650.

Entries and their measured pKd follow.
experimental_system: SCRIB_2, Q14160
Sequence (Q14160 857-960): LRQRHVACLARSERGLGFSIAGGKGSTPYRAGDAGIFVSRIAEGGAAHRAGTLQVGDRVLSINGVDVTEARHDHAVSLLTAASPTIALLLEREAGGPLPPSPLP
assay_remarks: holdup assay
Parameters: key: below the threshold = too weak to quantify, mostly under pKd 3.1 to 4
run_conditions: plain residues with an end cap or a label only (N-terminal biotin on a linker: ttds)
Give the value as a plain number.

binder	pKd
DKDPHSETAL [TMIGD1, Q6UXZ0]	4.23

Pending binder:
-- ask Identify measured pKd corresponding to PVRVCEETSL [OTULIN, Q96BN8]
-- reply 4.7
